KIDNEY_L values by entry
organism: Rattus norvegicus; assay: Open TG-GATES - Regimen: Single; format: toxicity, organism-based, Sprague-Dawley; design: regimen Single, gender Male, age 6 weeks; details: in vivo, po, 0 mg/kg, 24 h, tissue Kidney, route gavage, dose level Control
State the answer as a number, implicitly in g.

Compound: COc1ccc(Cc2nccc3cc(OC)c(OC)cc23)cc1OC
Unit String: g
Reported: 1

INPUT: Supply recorded KIDNEY_L for O=C(O)c1cc(/N=N/c2ccc(S(=O)(=O)Nc3ccccn3)cc2)ccc1O here.
OUTPUT: 1

INPUT: Supply recorded KIDNEY_L for COc1cc2c(c3oc(=O)c4c(c13)CCC4=O)[C@@H]1C=CO[C@@H]1O2 here.
OUTPUT: 1

INPUT: Supply recorded KIDNEY_L for COc1ccc2c(c1)c(CC(=O)O)c(C)n2C(=O)c1ccc(Cl)cc1 here.
OUTPUT: 1

INPUT: Supply recorded KIDNEY_L for CN(C)CCC=C1c2ccccc2CCc2ccccc21 here.
OUTPUT: 0.9

INPUT: Supply recorded KIDNEY_L for Cn1c(=O)c2[nH]cnc2n(C)c1=O.O here.
OUTPUT: 1

INPUT: Supply recorded KIDNEY_L for NC(=O)N/N=C/c1ccc([N+](=O)[O-])o1 here.
OUTPUT: 0.8

INPUT: Supply recorded KIDNEY_L for Clc1ccccc1CN1CCc2sccc2C1 here.
OUTPUT: 1

INPUT: Supply recorded KIDNEY_L for CCc1cc(C(N)=S)ccn1 [ETHIONAMIDE] here.
OUTPUT: 1

INPUT: Supply recorded KIDNEY_L for CC(=O)Oc1ccccc1C(=O)O here.
OUTPUT: 1

INPUT: Supply recorded KIDNEY_L for NC(=O)N1c2ccccc2C=Cc2ccccc21 [CARBAMAZEPINE] here.
OUTPUT: 1

INPUT: Supply recorded KIDNEY_L for O=C(O)c1cn(C2CC2)c2cc(N3CCNCC3)c(F)cc2c1=O here.
OUTPUT: 0.9

INPUT: Supply recorded KIDNEY_L for C[C@H](CS)C(=O)N1CCC[C@H]1C(=O)O here.
OUTPUT: 1

INPUT: Supply recorded KIDNEY_L for CSc1ccc2c(c1)N(CCC1CCCCN1C)c1ccccc1S2 (centres undefined) here.
OUTPUT: 1

====

RBC values by entry
organism: Rattus norvegicus; assay: Open TG-GATES - Regimen: Single; format: toxicity, organism-based, Sprague-Dawley; design: regimen Single, gender Male, age 6 weeks; settings: in vivo, po, 1000 mg/kg, 3 h, tissue Blood, route gavage, dose level High
State the answer as a number, implicitly in x10_4/ul.

Below are worked cases with known answers.
Compound: O=C(O)c1cn(C2CC2)c2cc(N3CCNCC3)c(F)cc2c1=O [CIPROFLOXACIN]
RBC [x10_4/ul]: 592.8

Compound: O=C(O)c1cc(/N=N/c2ccc(S(=O)(=O)Nc3ccccn3)cc2)ccc1O [SULFASALAZINE]
RBC [x10_4/ul]: 633.8

Compound: CCc1cc(C(N)=S)ccn1 [ETHIONAMIDE]
RBC [x10_4/ul]: 640

INPUT: Supply recorded RBC for C[C@H](CS)C(=O)N1CCC[C@H]1C(=O)O [CAPTOPRIL] here.
OUTPUT: 621.6

INPUT: Supply recorded RBC for Clc1ccccc1CN1CCc2sccc2C1 [TICLOPIDINE] here.
OUTPUT: 609.4
